test name: Hemolytic activity in human RBC at 12.5 uM after 30 mins relative to control
Assay type: ADME, cell-based, Erythrocyte
run parameters: human red blood cells (RBC), read-out: Activity
measurement name: hemolysis at 0.5 h, 12.5 µM

Find the recorded hemolysis at 0.5 h, 12.5 µM belonging to `Ac-KAAKAAKKAAKAAWK-NH2` and report it.
< 1%

====

test name: Hemolytic activity in human RBC at 12.5 uM after 30 mins relative to control
Type: ADME, cell-based, Erythrocyte
run parameters: human red blood cells (RBC), read-out: Activity
Positions of bridges follow the written chain, without caps; N, C: chain ends. Non-standard residues stand in square brackets, D forms with d. Residues, ends and D or L forms follow the SMILES beside them. R5 = C=CCCC[C@@](C)(N)C(=O)O
hemolysis at 0.5 h, 12.5 µM overview

- CC(=O)N[C@@H](CCCCN)C(=O)N[C@]1(C)CCC/C=C\CCC[C@](C)(C(=O)N[C@@H](CCCCN)C(=O)N[C@@H](CCCCN)C(=O)N[C@]2(C)CCC/C=C\CCC[C@](C)(C(=O)N[C@@H](C)C(=O)N[C@@H](CCCCN)C(N)=O)NC(=O)[C@H](C)NC(=O)[C@H](CCCCN)NC(=O)[C@H](C)NC2=O)NC(=O)[C@H](Cc2c[nH]c3ccccc23)NC(=O)[C@H](CCCCN)NC(=O)[C@H](C)NC1=O (Ac-K[R5]AKW[R5]KK[R5]AKA[R5]AK-NH2; staple (Z) 2-6, 9-13): 22%

Please examine the following record next.
Look up hemolysis at 0.5 h, 12.5 µM: CC(=O)N[C@@H](CCCCN)C(=O)N[C@]1(C)CCC/C=C\CCC[C@](C)(C(=O)N[C@@H](CCCCN)C(=O)N[C@@H](CCCCN)C(=O)N[C@@H](C)C(=O)N[C@@H](C)C(=O)N[C@@H](CCCCN)C(=O)N[C@@H](C)C(=O)N[C@@H](C)C(=O)N[C@@H](Cc2c[nH]c3ccccc23)C(=O)N[C@@H](CCCCN)C(N)=O)NC(=O)[C@H](C)NC(=O)[C@H](CCCCN)NC(=O)[C@H](C)NC1=O (Ac-K[R5]AKA[R5]KKAAKAAWK-NH2; staple (Z) 2-6)
< 1%

====

# MIC per record follows
System: Staphylococcus aureus
test name: Antimicrobial activity against Staphylococcus aureus ATCC 6538p after 24 hrs by broth microdilution method
Assay type: functional
Positions of bridges follow the written chain, without caps; N, C: chain ends. Non-standard residues stand in square brackets, D forms with d. Residues, ends and D or L forms follow the SMILES beside them. R5 = C=CCCC[C@@](C)(N)C(=O)O
Write the answer as a number in µg/mL, unit excluded.

• CC(=O)N[C@@H](CCCCN)C(=O)N[C@]1(C)CCC/C=C\CCC[C@](C)(C(=O)N[C@@H](CCCCN)C(=O)N[C@@H](CCCCN)C(=O)N[C@]2(C)CCC/C=C\CCC[C@](C)(C(=O)N[C@@H](C)C(=O)N[C@@H](CCCCN)C(N)=O)NC(=O)[C@H](Cc3c[nH]c4ccccc34)NC(=O)[C@H](CCCCN)NC(=O)[C@H](C)NC2=O)NC(=O)[C@H](C)NC(=O)[C@H](CCCCN)NC(=O)[C@H](C)NC1=O (Ac-K[R5]AKA[R5]KK[R5]AKW[R5]AK-NH2; staple (Z) 2-6, 9-13) = 3.1

// switching to the query compound
I would be grateful if you could share the reported MIC for CC(=O)N[C@@H](CCCCN)C(=O)N[C@]1(C)CCC/C=C\CCC[C@](C)(C(=O)N[C@@H](CCCCN)C(=O)N[C@@H](CCCCN)C(=O)N[C@]2(C)CCC/C=C\CCC[C@](C)(C(=O)N[C@@H](C)C(=O)N[C@@H](CCCCN)C(N)=O)NC(=O)[C@H](C)NC(=O)[C@H](CCCCN)NC(=O)[C@H](C)NC2=O)NC(=O)[C@H](C)NC(=O)[C@H](CCCCN)NC(=O)[C@H](Cc2c[nH]c3ccccc23)NC1=O (Ac-K[R5]WKA[R5]KK[R5]AKA[R5]AK-NH2; staple (Z) 2-6, 9-13) .
4.8
